Cited source: patent US20160297884A1

# Lookup of reported T ½ keyed by entry
# TARGET_OF_ASSAY: T1, cynomolgus monkey BCMA (cynomolgus monkey, UniProt A0A2K5UD97 1-53)
# T1 construct: Soluble analyte in SPR; construct not described; also called cyBCMA; Cyno BCMA
# METHOD_SUMMARY: SPR, IgG immobilised, 25 C

| BINDER | UNIT_DESCRIPTOR | T ½ |
| --- | --- | --- |
| L1.GDF/L3.NY/H3.AP (antibody, V domains shown, IgG) VH: EVQLLESGGGLVQPGGSLRLSCAASGFTFGSYAMTWVRQAPGKGLEWVSAISGSGGNTFYADSVKGRFTISRDNSKNTLYLQMNSLRAEDTAVYYCARVSPIAAPMDYWGQGTLVTVSS VL: EIVLTQSPGTLSLSPGERATLSCRASQSVGDFYLAWYQQKPGQAPRLLIYGASSRATGIPDRFSGSGSGTDFTLTISRLEPEDFAVYYCQHYNYPPSFTFGQGTKVEIK | min | 1.6 |
| L3.PY/P6E01 (antibody, V domains shown, IgG) VH: EVQLLESGGGLVQPGGSLRLSCAASGFTFGSYAMTWVRQAPGKGLEWVSAISGSGGNTFYADSVKGRFTISRDNSKNTLYLQMNSLRAEDTAVYYCARVSPIASGMDYWGQGTLVTVSS VL: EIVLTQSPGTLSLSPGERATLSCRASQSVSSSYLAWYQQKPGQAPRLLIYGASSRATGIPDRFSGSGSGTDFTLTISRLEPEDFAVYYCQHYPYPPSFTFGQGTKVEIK | min | 3.9 |
| L1.LGF/L3.NY/H3.AL (antibody, V domains shown, IgG) VH: EVQLLESGGGLVQPGGSLRLSCAASGFTFGSYAMTWVRQAPGKGLEWVSAISGSGGNTFYADSVKGRFTISRDNSKNTLYLQMNSLRAEDTAVYYCARVSPIAALMDYWGQGTLVTVSS VL: EIVLTQSPGTLSLSPGERATLSCRASQSLGSFYLAWYQQKPGQAPRLLIYGASSRATGIPDRFSGSGSGTDFTLTISRLEPEDFAVYYCQHYNYPPSFTFGQGTKVEIK | min | 0.8 |
| L1.GDF/L3.KW/H3.AL (antibody, V domains shown, IgG) VH: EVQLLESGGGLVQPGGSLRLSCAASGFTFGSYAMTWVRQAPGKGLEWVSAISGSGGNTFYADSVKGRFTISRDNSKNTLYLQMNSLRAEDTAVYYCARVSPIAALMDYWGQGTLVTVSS VL: EIVLTQSPGTLSLSPGERATLSCRASQSVGDFYLAWYQQKPGQAPRLLIYGASSRATGIPDRFSGSGSGTDFTLTISRLEPEDFAVYYCKHYGWPPSFTFGQGTKVEIK | min | 0.6 |
| L1.GDF/L3.NY/H3.AL (antibody, V domains shown, IgG) VH: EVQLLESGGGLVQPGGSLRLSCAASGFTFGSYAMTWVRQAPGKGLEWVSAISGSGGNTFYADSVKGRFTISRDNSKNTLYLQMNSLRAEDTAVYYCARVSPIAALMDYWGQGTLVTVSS VL: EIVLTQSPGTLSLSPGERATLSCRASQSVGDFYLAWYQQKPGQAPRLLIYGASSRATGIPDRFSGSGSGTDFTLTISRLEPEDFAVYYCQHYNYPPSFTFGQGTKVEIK | min | 0.5 |
| L3.NY/P6E01 (antibody, V domains shown, IgG) VH: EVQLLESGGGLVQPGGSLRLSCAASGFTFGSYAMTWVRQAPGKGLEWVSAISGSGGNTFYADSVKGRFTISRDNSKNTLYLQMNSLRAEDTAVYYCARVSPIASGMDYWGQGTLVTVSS VL: EIVLTQSPGTLSLSPGERATLSCRASQSVSSSYLAWYQQKPGQAPRLLIYGASSRATGIPDRFSGSGSGTDFTLTISRLEPEDFAVYYCQHYNYPPSFTFGQGTKVEIK | min | 4 |
| L1.GDF/L3.KW/H3.AQ (antibody, V domains shown, IgG) VH: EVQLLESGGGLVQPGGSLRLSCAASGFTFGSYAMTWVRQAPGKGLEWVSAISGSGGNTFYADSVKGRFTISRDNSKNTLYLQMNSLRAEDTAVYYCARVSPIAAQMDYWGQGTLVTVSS VL: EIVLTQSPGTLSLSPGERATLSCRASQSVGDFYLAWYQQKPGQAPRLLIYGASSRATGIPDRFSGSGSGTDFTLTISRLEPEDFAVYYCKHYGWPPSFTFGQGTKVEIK | min | 2 |
| L1.LGF/L3.NY/H3.AP (antibody, V domains shown, IgG) VH: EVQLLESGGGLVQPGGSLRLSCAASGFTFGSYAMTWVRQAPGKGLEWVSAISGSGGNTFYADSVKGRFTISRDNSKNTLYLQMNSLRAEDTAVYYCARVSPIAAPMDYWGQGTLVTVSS VL: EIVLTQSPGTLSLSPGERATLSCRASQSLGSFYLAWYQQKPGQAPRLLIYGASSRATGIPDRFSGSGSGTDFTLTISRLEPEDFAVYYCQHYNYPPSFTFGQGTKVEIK | min | 2.1 |
| L1.GDF/L3.NY/H3.AQ (antibody, V domains shown, IgG) VH: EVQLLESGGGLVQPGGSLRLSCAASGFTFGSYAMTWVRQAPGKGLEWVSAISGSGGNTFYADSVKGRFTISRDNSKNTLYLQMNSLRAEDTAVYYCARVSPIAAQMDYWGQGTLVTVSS VL: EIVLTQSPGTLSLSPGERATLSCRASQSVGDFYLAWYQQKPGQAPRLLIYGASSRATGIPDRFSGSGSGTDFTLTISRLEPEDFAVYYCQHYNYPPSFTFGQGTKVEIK | min | 8.5 |
| L1.LGF/L3.KW/H3.AQ (antibody, V domains shown, IgG) VH: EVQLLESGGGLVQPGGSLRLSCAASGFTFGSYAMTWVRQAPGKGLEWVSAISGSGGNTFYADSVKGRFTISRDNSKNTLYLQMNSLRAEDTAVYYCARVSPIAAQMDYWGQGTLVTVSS VL: EIVLTQSPGTLSLSPGERATLSCRASQSLGSFYLAWYQQKPGQAPRLLIYGASSRATGIPDRFSGSGSGTDFTLTISRLEPEDFAVYYCKHYGWPPSFTFGQGTKVEIK | min | 3.3 |
